# System: MOLM14
# ASSAY INFO: cell viability relative to vehicle control; higher = less cytotoxic;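 note: after 48 h exposure read by CellTiter-Glo luminescence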
# MEASUREMENT SETUP: 10 µM; SRSF2 genotype: SRSF2 P95H/wt
Where a name gives a salt, the structure may show the parent alone.
METRIC: cell viability (%)
Numbers only, in %.

COMPOUND	cell viability (%)
COc1ccc(C2=NC(c3ccc(Cl)cc3)C(c3ccc(Cl)cc3)N2C(=O)N2CCNC(=O)C2)c(OC(C)C)c1 (stereo not given) [Nutlin-3b]	77.2
CC1=C(/C=C/C(C)=C/C=C/C(C)=C\C(=O)O)C(C)(C)CCC1 [Isotretinoin]	65.4
Nc1ccc(-c2cccc(C(=O)Nc3cnc4nc(N5CCOCC5)oc4c3)n2)cn1	86
C=CC(=O)Nc1cccc(Sc2nc(Nc3ccc(N4CCN(C)CC4)cc3)ncc2Cl)c1	0.08
CC(=O)O[C@]1(C(C)=O)CC[C@H]2[C@@H]3C=C(Cl)C4=CC(=O)[C@@H]5C[C@@H]5[C@]4(C)[C@H]3CC[C@@]21C [Cyproterone acetate]	86.2
CC(C)c1ccc(NC(=O)Cn2cnc3c2c(=O)n(C)c(=O)n3C)cc1	95.1
CC1(C)OC(=O)C=C[C@]2(C)[C@H]3CC[C@@]4(C)[C@H](c5ccoc5)OC(=O)[C@H]5O[C@]54[C@]3(C)C(=O)C[C@@H]12 [Obacunone]	97.4
Nc1nc2n[nH]nc2c(=O)[nH]1 [Azaguanine-8]	82.7

Provide cell viability values for the following items, in order.
1. C[C@H](CCC(=O)NCCS(=O)(=O)O)[C@H]1CC[C@H]2[C@@H]3[C@@H](O)C[C@@H]4C[C@H](O)CC[C@]4(C)[C@H]3CC[C@]12C [Tauroursodeoxycholic Acid]
2. O=C1[C@H]2CCCC[C@H]2C(=O)N1CCCCN1CCN(c2nsc3ccccc23)CC1 [Perospirone hydrochloride]
3. O=C(Nc1nccs1)C(c1cc(F)ccc1O)N1Cc2ccccc2C1=O (stereo not given)
4. C#C[C@]1(O)CC[C@H]2[C@@H]3CCC4=CCCC[C@@H]4[C@H]3C(=C)C[C@@]21CC [Desogestrel]

Result:
1. 107
2. 78.7
3. 98
4. 71.4

Hey, can you go through the list below and give me cell viability for every item?
1. C[C@@H]1CCCC2=CC(=O)[C@@H]3[C@@H](C3(C)C)[C@]21C [Aristolone]
2. COC(=O)c1ccc2c(C(=Nc3ccc(N(C)C(=O)CN4CCN(C)CC4)cc3)c3ccccc3)c(O)[nH]c2c1 [Nintedanib (BIBF 1120)]
3. CO/N=C(\C(=O)N[C@@H]1C(=O)N2C(C(=O)[O-])=C(C[n+]3cccc4c3CCC4)CS[C@H]12)c1csc(N)n1 [Cefpirome sulfate]

Result:
[112, 2.6, 103]

###

For each record, write down the corresponding cell viability.
# Tested on: MOLM14
# ASSAY INFO: cell viability relative to vehicle control; higher = less cytotoxic
# MEASUREMENT SETUP: 10 µM; SRSF2 genotype: SRSF2 P95H/wt
Answers are plain numbers, in %.

Answered cases to consult:
COMPOUND	cell viability (%)
O=P(O)(O)C(O)(Cc1cccnc1)P(=O)(O)O [Risedronate sodium]	91.8
CC(=O)Nc1nc2c(Oc3cc(-c4ccc(C(F)(F)F)cc4)ncn3)cccc2s1	95.9
Nc1nc(NC2CC2)cc(-c2cccc(Cl)c2Cl)n1	34.5
Cc1onc(-c2ccccc2)c1-c1ccc(S(N)(=O)=O)cc1	90.6
C[C@@H]1O[C@@H](OC[C@H]2O[C@@H](Oc3cc(O)c4c(c3)O[C@H](c3ccc(O)cc3)CC4=O)[C@H](O)[C@@H](O)[C@@H]2O)[C@H](O)[C@H](O)[C@H]1O	98.9

Fill in cell viability for each of the 3 compounds listed.
1. O=C(c1ccc(F)cc1)N1CCCC(c2nc(-c3ccc(F)cc3)no2)C1 (centres undefined)
2. Clc1ccc(C(c2ccccc2Cl)C(Cl)Cl)cc1 (centres undefined)
3. CN(C)CCSSCCNC(=O)C1CCN(C(=O)CSc2ccc(Cl)cc2)CC1

Result:
80.1
90.8
91.8

Request: Form field: reported cell viability of CCN(CC)Cc1ccc2cc(COC(=O)Nc3ccc(C(=O)NO)cc3)ccc2c1
Result: 0.81

###

# System: OCI-AML2
# ASSAY INFO: cell viability relative to vehicle control; higher = less cytotoxic
# MEASUREMENT SETUP: 10 µM; SRSF2 genotype: P95H/wt
I'd appreciate it if you marked entries t when cell viability is lower than 60% and f when it is not.

Past entries and their recorded results:
In [3]: df
Out[3]:
                                   compound  subject_of_test  assigned_label
0  COC(=O)[C@H](O)[C@@H](NC(=O)c1ccccc1)c1ccccc1         OCI-AML2               f
1  COC(=O)c1ccc2c(c1)nc(NC(=O)c1ccccc1)n2CCCc1ccccc1         OCI-AML2               f
2  Cn1cc(-c2[nH]c3cc(NC(=O)[C@H](N)C4CCCCC4)cc4c3c2C=NNC4=O)cn1         OCI-AML2               t
3  Nc1ccc(O)c(C(=O)O)c1 [Mesalamine (Lialda)]         OCI-AML2               f

Kindly review the next compound as well.
Request: Field: below-cutoff. Rule: recorded cell viability strictly less than 60%. Subject: COc1cc(C)c2c(=O)c(-c3ccccc3)coc2c1 [5-Methyl-7-methoxyisoflavone]
Result: f

###

# System: MARIMO
# ASSAY INFO: cell viability relative to vehicle control; higher = less cytotoxic
# MEASUREMENT SETUP: 10 µM; SRSF2 genotype: SRSF2 wt/wt
Counter-ions that a name gives are not always drawn.
METRIC: cell viability (%)
One number for each entry, in %.

>>> print(df.to_string())
                                   compound  subject_of_test          metric  quantitative_readout
0                          COc1cc(C=O)ccc1O           MARIMO  cell viability                   105
1            CC(=O)N1C[C@H](O)C[C@H]1C(=O)O           MARIMO  cell viability                   109
2  Cc1cc(/C=C/C#N)cc(C)c1Nc1ccnc(Nc2ccc(C#N)cc2)n1           MARIMO  cell viability                  59.8
3  CN1[C@@H]2CC[C@H]1C[C@@H](OC(c1ccccc1)c1ccccc1)C2 [Benztropine mesylate]           MARIMO  cell viability                  91.2
4                           O=C1Cc2ccccc2N1           MARIMO  cell viability                   103

The following compounds each have a reported value; give each one's cell viability.
1. COc1ccc(C[C@@H]2c3cc(Oc4cc(C[C@@H]5c6cc(OC)c(OC)cc6CCN5C)ccc4O)c(OC)cc3CCN2C)cc1
2. CCCCC1C(=O)N(c2ccccc2)N(c2ccccc2)C1=O
3. Cc1cccc(CN2CCN(C(c3ccccc3)c3ccc(Cl)cc3)CC2)c1 (stereo not drawn) [Meclizine dihydrochloride]
4. Nc1ccc(C(=O)NCC(=O)O)cc1

Result:
[120, 102, 105, 102]

State the recorded cell viability for every item in the following list.
1. NC1(c2ccc(-c3nc4ccn5c(=O)[nH]nc5c4cc3-c3ccccc3)cc2)CCC1 [MK-2206 dihydrochloride]
2. NC(=O)c1cccc2cn(-c3ccc(C4CCCNC4)cc3)nc12 (stereo not drawn)
3. O=C(NNc1ccccc1)c1ccncc1

Result:
1: 53.3; 2: 57.4; 3: 101

###

# Tested on: K562
# ASSAY INFO: cell viability relative to vehicle control; higher = less cytotoxic
# MEASUREMENT SETUP: 10 µM; SRSF2 genotype: SRSF2 wt/wt
Structures can show the parent of a compound that is named as a salt.
Sorting guide: entries reporting cell viability beneath 80% go in the criterion met pile, the rest go in the criterion not met pile.

COMPOUND	ASSIGNED LABEL
CC[C@@H](N)CNc1ccnc(-c2cc(-c3cnn(C)c3)ccc2O)n1	criterion met
CC(=O)c1cc2c(o1)C(=O)c1ccccc1C2=O	criterion met

Request: Is the reported cell viability for CC1(C)C(O[C@@H]2OC[C@@H](O)[C@H](O)[C@H]2O)CC[C@]23CC24CC[C@]2(C)[C@@H]([C@@]5(C)CC[C@@H](C(C)(C)O)O5)[C@H](O)C[C@@]2(C)C4C[C@@H](O[C@@H]2O[C@H](CO)[C@@H](O)[C@H](O)[C@H]2O)C13 (stereo partly drawn) [Astragaloside IV] strictly below 80%?
Result: criterion not met

Request: Let us now turn to CCC(=O)Nc1cccc(Oc2nc(Nc3ccc(N4CCN(C)CC4)cc3OC)ncc2Cl)c1
Result: criterion not met

Request: Also check Cc1ccc(N(CC2=NCCN2)c2cccc(O)c2)cc1 [Phentolamine Mesylate]
Result: criterion not met

Request: Follow-up item: CCc1cncnc1N1CCN(Cc2nc3ccc(C(F)(F)F)cc3[nH]2)CC1
Result: criterion met

Request: Now the same for C=CC(=O)Nc1cc(Nc2nccc(-c3c[nH]c4ccccc34)n2)c(OC)cc1N(C)CCN(C)C
Result: criterion met

Request: Also O=C(O)Cc1ccccc1Nc1c(Cl)cccc1Cl [Diclofenac Sodium] , if possible.
Result: criterion not met

Request: Also check CCCNC(C)C(=O)Nc1c(C)csc1C(=O)OC (stereo not drawn) [Articaine HCl]
Result: criterion not met

Request: Next compound up: C[C@H](NCc1ccc(OCc2cccc(F)c2)cc1)C(N)=O [Safinamide]
Result: criterion not met
